# target: AR protein (Homo sapiens, UniProt P10275, T878A)
# Construct: host or cells: LNCaP FGC
# Sequence (P10275 whole entry T878A): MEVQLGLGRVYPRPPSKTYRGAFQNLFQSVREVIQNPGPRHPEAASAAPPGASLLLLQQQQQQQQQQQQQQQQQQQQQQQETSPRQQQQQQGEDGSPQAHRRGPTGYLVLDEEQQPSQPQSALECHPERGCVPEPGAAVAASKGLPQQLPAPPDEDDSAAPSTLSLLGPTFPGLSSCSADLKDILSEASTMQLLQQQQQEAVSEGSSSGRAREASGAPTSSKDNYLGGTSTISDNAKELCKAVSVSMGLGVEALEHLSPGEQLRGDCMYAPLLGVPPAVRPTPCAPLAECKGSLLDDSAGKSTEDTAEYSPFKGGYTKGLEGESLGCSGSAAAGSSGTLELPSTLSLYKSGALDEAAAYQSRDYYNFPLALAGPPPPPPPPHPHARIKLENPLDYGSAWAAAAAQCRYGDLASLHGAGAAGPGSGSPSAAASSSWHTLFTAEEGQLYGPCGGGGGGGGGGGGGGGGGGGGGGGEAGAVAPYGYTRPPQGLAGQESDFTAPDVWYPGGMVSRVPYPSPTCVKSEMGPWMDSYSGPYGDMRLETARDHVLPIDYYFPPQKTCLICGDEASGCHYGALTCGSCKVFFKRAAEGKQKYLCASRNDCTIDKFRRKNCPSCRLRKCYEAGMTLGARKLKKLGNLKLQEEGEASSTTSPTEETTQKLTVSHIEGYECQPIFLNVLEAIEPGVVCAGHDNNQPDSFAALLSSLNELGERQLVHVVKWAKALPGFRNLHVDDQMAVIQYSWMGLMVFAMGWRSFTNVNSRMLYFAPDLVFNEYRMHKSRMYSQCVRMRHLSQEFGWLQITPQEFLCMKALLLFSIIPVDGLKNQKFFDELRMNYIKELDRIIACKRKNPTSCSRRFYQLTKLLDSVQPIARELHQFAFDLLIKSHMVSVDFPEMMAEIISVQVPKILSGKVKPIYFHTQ
# procedure-text: AR protein degradation in LNCaP cells (Western blot)
# Type: cell-based
# experimental-context: 10 nM, 8 hours
recorded-metric: Degradation of AR protein in LNCaP cells, 10 nM (%)
Note: unit % is implicit; provide only the numeric part.

These recorded examples may help you get a feel for the data.
COc1cc(O[C@H]2C(C)(C)[C@H](NC(=O)c3ccc(N4CCC(C)(CN5CCC6(CC5)COc5c6ccc(C(=O)N[C@H]6CCC(=O)NC6=O)c5F)CC4)cc3)C2(C)C)ccc1C#N [A-P-85]; 7
COc1cc(O[C@H]2C(C)(C)[C@H](NC(=O)c3ccc(N4CCC(CN5CCC6(CC5)COc5c6ccc(C(=O)N[C@H]6CCC(=O)NC6=O)c5F)CC4)cc3)C2(C)C)ccc1C#N [A-P-83]; 41
COc1cc(O[C@H]2C(C)(C)[C@H](NC(=O)c3ccc(N4CCC(CN5CCN6c7ccc(N[C@H]8CCC(=O)NC8=O)cc7OC[C@@H]6C5)CC4)cc3)C2(C)C)ccc1C#N [A-P-100]; 1
COc1cc(O[C@H]2C(C)(C)[C@H](NC(=O)c3ccc(N4CCC(CN5CC6(CCC7(CC6)COc6c7ccc7c6CN(C6CCC(=O)NC6=O)C7=O)C5)CC4)cc3)C2(C)C)ccc1C#N (relative stereo) [A-P-3]; 64

Check AR protein (Homo sapiens, UniProt P10275, T878A) data and give Degradation of AR protein in LNCaP cells, 10 nM (%) for COc1cc(O[C@H]2C(C)(C)[C@H](NC(=O)c3ccc(N4CCC(C)(CN5CCC6(CCc7cc(C(=O)N[C@H]8CCC(=O)NC8=O)c(F)cc7O6)CC5)CC4)cn3)C2(C)C)ccc1C#N [A-P-43] . 8

====

In this section, each of the molecules is paired with its reported IC50.
# Tested on: LNCaP cells
# procedure-text: Inhibition of LNCaP cell proliferation (WST-8)
# Format: cell-based
# experimental-context: Homo sapiens, LNCaP FGC cells, 96 hours
Note: unit µM is implicit; provide only the numeric part.

C[C@H]1CC2(CCN(c3ccc(N4CCC(CN5CC6(CCC7(CC6)COc6c7ccc7c6CN(C6CCC(=O)NC6=O)C7=O)C5)CC4)cc3)CC2)CN1c1ccc(C#N)c(Cl)c1 (stereo partly shown); 1.02
COc1cc(O[C@H]2C(C)(C)[C@H](NC(=O)c3ccc(N4CCC(CN5CCN6c7ccc(C(=O)N[C@H]8CCC(=O)NC8=O)cc7OC[C@@H]6C5)CC4)cc3)C2(C)C)ccc1C#N; 7.22
COc1cc(O[C@H]2C(C)(C)[C@H](NC(=O)c3ccc(N4CCC(CN5CCC6(CCc7cc(C(=O)N[C@H]8CCC(=O)NC8=O)c(F)cc7O6)CC5)CC4)cc3)C2(C)C)ccc1C#N; 1.48
COc1cc(O[C@H]2C(C)(C)[C@H](NC(=O)c3ccc(N4CCC(F)(CN5CCC6(CCc7cc(C(=O)N[C@H]8CCC(=O)NC8=O)c(F)cc7O6)CC5)CC4)cc3)C2(C)C)ccc1C#N; 0.2
COc1cc2c(cc1C(=O)N[C@H]1CCC(=O)NC1=O)OC[C@H]1CN(CC3CCN(c4ccc(N5CCC6(CC5)C[C@H](C)N(c5ccc(C#N)c(Cl)c5)C6)cc4)CC3)CCN21; 0.35
COc1cc(O[C@H]2C(C)(C)[C@H](NC(=O)c3ccc(N4CCC(CN5CCC6(CCc7cc(C(=O)N[C@H]8CCC(=O)NC8=O)c(F)cc7O6)CC5)CC4)nc3)C2(C)C)ccc1C#N; 1.58
COc1cc(O[C@H]2C(C)(C)[C@H](NC(=O)c3ccc(N4CCC(F)(CN5CCC6(CC5)COc5c6ccc(C(=O)N[C@H]6CCC(=O)NC6=O)c5F)CC4)cc3)C2(C)C)ccc1C#N; 0.11
C[C@H]1CC2(CCN(c3ccc(C(=O)N4CCC(CN5CCN6c7ccc(C(=O)N[C@H]8CCC(=O)NC8=O)c(F)c7OC[C@H]6C5)CC4)cc3)CC2)CN1c1ccc(C#N)c(Cl)c1; 9.54
COc1cc(O[C@H]2C(C)(C)[C@H](NC(=O)c3ccc(N4CCC(CN5CCC6(CC5)COc5c6ccc(C(=O)N[C@H]6CCC(=O)NC6=O)c5OC)CC4)cc3)C2(C)C)ccc1C#N; 50.7

Moving on to another molecule below.
Please indicate IC50 recorded for "C[C@H]1CC2(CCN(c3ccc(C(=O)N4CCC(CN5CCN6c7cc(F)c(C(=O)N[C@H]8CCC(=O)NC8=O)cc7OC[C@H]6C5)CC4)cc3)CC2)CN1c1ccc(C#N)c(Cl)c1" 0.69
